system: Escherichia coli; experiment: Antibacterial activity against Escherichia coli TG1 pET28a plasmid encoded for APH(3')-3a after 12 to 18 hrs; format: functional
QUANTITY_NAME: MIC (µg/mL)

GIVEN_SMILES	VALUE_UNITS	RESULT
CCCCCCCCCCCCCCCC(=O)NC[C@H]1O[C@@H](O[C@@H]2[C@@H](O)[C@H](N)C[C@H](N)[C@H]2O[C@H]2O[C@H](CN)[C@@H](O)[C@H](O)[C@H]2N)[C@H](O)[C@@H]1O[C@H]1O[C@@H](CN)[C@@H](O)[C@H](O)[C@H]1N	µg/mL	1
NCCCC[C@@H](N)C(=O)NC[C@H]1O[C@@H](O[C@@H]2[C@@H](O)[C@H](N)C[C@H](N)[C@H]2O[C@H]2O[C@H](CN)[C@@H](O)[C@H](O)[C@H]2N)[C@H](O)[C@@H]1O[C@H]1O[C@@H](CN)[C@@H](O)[C@H](O)[C@H]1N	µg/mL	64
NC[C@@H]1O[C@H](O[C@H]2[C@@H](O)[C@H](O[C@@H]3[C@@H](O)[C@H](N)C[C@H](N)[C@H]3O[C@H]3O[C@H](CN)[C@@H](O)[C@H](O)[C@H]3N)O[C@@H]2CNC(=O)[C@H](N)CO)[C@H](N)[C@@H](O)[C@@H]1O	µg/mL	64
CN(C)Cc1cn(C[C@H]2O[C@@H](O[C@@H]3[C@@H](O)[C@H](N)C[C@H](N)[C@H]3O[C@H]3O[C@H](CN)[C@@H](O)[C@H](O)[C@H]3N)[C@H](O)[C@@H]2O[C@H]2O[C@@H](CN)[C@@H](O)[C@H](O)[C@H]2N)nn1	µg/mL	64
NC[C@@H]1O[C@H](O[C@H]2[C@@H](O)[C@H](O[C@@H]3[C@@H](O)[C@H](N)C[C@H](N)[C@H]3O[C@H]3O[C@H](CN)[C@@H](O)[C@H](O)[C@H]3N)O[C@@H]2Cn2cc(CNC(=O)[C@@H]3CCCN3)nn2)[C@H](N)[C@@H](O)[C@@H]1O	µg/mL	64
